# target.entity: Prostaglandin G/H synthase 1 (Ovis aries) (UniProt P05979)
Reported IC50 is given for each of the following compounds.

Prompt: API: value(readout= IC50, system= Prostaglandin G/H synthase 1 (Ovis aries) (UniProt P05979), query= CCc1ccc(CSc2nccn2-c2ccccc2)cc1 )
Response: > 100 µM

Shifting focus to the compound that follows.
Prompt: GET /values?readout=IC50&system=Prostaglandin G/H synthase 1 (Ovis aries) (UniProt P05979)&item= Brc1ccc(CSc2nccn2-c2ccccc2)cc1
Response: > 100 µM
